# tested target: AKR1C4 (Homo sapiens (Human), UniProt P17516)
# Sequence (P17516 whole entry): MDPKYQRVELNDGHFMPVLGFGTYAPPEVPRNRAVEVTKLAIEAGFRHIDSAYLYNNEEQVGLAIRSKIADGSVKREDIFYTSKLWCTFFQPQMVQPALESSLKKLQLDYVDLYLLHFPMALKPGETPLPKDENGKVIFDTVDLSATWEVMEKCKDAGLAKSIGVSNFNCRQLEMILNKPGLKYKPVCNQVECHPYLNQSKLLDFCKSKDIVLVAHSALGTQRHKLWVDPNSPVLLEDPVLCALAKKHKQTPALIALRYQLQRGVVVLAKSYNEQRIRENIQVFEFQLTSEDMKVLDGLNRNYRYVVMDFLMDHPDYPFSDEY
# experiment summary: AKR enzyme inhibition assay, AKR1C4
# stated conditions: Table 2; recombinant enzyme; read-out: IC50 ± SD AKR1C4
This section presents molecules with their documented IC50 values.
Unit µM implied. Number only.

Recorded IC50, per entry:
Cc1ccc(CNC(=O)c2cc(/C=C/C(=O)O)cc(-c3ccc(-n4c5ccccc5c5ccccc54)cc3)c2)cc1 11
Cc1ccc(CNC(=O)c2cc(/C=C/C(=O)O)cc(-c3ccc4ncnn4c3)c2)cc1 43

Let's switch to this molecule now.
Find the measured IC50 of Cc1ccc(CNC(=O)c2cc(/C=C/C(=O)O)cc(-c3ccccc3)c2)cc1 and report it.
21

----------
# tested target: UniProtKB P52895
# Sequence (P52895 whole entry): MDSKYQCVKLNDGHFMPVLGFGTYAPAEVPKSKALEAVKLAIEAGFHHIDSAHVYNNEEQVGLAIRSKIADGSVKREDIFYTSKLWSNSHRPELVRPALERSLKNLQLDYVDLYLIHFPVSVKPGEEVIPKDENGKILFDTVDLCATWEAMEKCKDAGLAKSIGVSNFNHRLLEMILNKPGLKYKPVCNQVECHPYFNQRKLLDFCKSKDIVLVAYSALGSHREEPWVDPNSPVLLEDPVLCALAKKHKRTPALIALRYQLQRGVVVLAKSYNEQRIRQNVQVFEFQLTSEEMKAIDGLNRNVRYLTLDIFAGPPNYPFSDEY
# experiment summary: AKR enzyme inhibition assay, NADP+ dependent oxidation of S-tetralol, AKR1C2 counter-screen
# Type: biochemical
# stated conditions: Table 2; recombinant enzyme, S-tetralol at Km; read-out: IC50 ± SD AKR1C2
Measured pIC50 by item
The value called pIC50 is obtained by taking minus log10 of the concentration in mol/L.

Below, 5 compounds whose answers are already recorded.
Cc1ccc(CNC(=O)c2cc(/C=C/C(=O)O)cc(-c3ccc(Oc4ccccc4)cc3)c2)cc1 5.32
Cc1ccc(CNC(=O)c2cc(/C=C/C(=O)O)cc(-c3ccc(CN4CCOCC4)c(F)c3)c2)cc1 5.29
Cc1ccc(CNC(=O)c2cc(/C=C/C(=O)O)cc(-c3ccc4ccccc4c3)c2)cc1 4.85
Cc1ccc(CNC(=O)c2cc(C#CC3CC3)cc(/C=C/C(=O)O)c2)cc1 4.43
Cc1ccc(CNC(=O)c2cc(/C=C/C(=O)O)cc(-c3ccc(Br)cc3)c2)cc1 4.60

Report pIC50, nothing else, for this compound: Cc1ccc(CNC(=O)c2cc(/C=C/C(=O)O)cc(-c3ccc(F)cc3)c2)cc1
4.44

For Cc1ccc(CNC(=O)c2cc(/C=C/C(=O)O)cc(-c3ccc4c(c3)OCO4)c2)cc1 , write its pIC50.
4.44

Give the reported value of pIC50 for this record: Cc1ccc(CNC(=O)c2cc(/C=C/C(=O)O)cc(-c3ccc4c(c3)OCCO4)c2)cc1
4.66

----------
IC50 listing for selected compounds.
# tested target: AKR1C3 (Homo sapiens (Human), UniProt P42330)
# Sequence (P42330 whole entry): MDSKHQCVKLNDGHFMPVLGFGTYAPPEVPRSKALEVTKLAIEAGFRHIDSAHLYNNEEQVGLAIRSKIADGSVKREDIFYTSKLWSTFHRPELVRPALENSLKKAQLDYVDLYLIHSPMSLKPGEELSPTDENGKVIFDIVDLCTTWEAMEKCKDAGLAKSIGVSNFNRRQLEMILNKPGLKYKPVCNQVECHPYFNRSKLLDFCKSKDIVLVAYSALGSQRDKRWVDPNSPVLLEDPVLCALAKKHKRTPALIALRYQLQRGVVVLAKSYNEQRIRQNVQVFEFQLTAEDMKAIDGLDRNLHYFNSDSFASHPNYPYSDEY
# experiment summary: AKR enzyme inhibition assay, NADP+ dependent oxidation of S-tetralol, AKR1C3
# Type: biochemical
# stated conditions: Table 2; recombinant enzyme, S-tetralol at Km; read-out: IC50 ± SD AKR1C3
Numeric only. Scale: nM

Consider the following illustrative entries.
compound	reading unit	IC50
C/C=C\Cc1cc(/C=C/C(=O)O)cc(C(=O)NCc2ccc(C)cc2)c1 [Compound A1-aa]	nM	80
Cc1ccc(CNC(=O)c2cc(/C=C/C(=O)O)cc(-c3ccccc3F)c2)cc1 [Compound A1-e]	nM	70
Cc1ccc(CNC(=O)c2cc(/C=C/C(=O)O)cc(-c3ccc4cccnc4c3)c2)cc1 [Compound A1-p]	nM	110

Fill in reported IC50 for this entry: CC(C)=CCOc1cc(/C=C/C(=O)O)cc(C(=O)NCc2ccc(C)cc2)c1 [Compound 10]
80

Supply IC50 value. Item: Cc1ccc(CNC(=O)c2cc(/C=C/C(=O)O)cc(-c3ccc(Oc4ccccc4)cc3)c2)cc1 [Compound A1-n]
94

# return recorded IC50 for input Cc1ccc(CNC(=O)c2cc(/C=C/C(=O)O)cc(-c3ccc4c(c3)OCCO4)c2)cc1 [Compound A1-s]
110

Tell me measured IC50 for Cc1ccc(CNC(=O)c2cc(/C=C/C(=O)O)cc(-c3ccc(-n4c5ccccc5c5ccccc54)cc3)c2)cc1 [Compound A1-v] please.
140

Look up IC50 of Cc1ccc(CNC(=O)c2cc(/C=C/C(=O)O)cc(-c3ccc(C)cc3)c2)cc1 [Compound A1-i] and report it.
100
